# MEASURED_TARGET: MCH receptor (Homo sapiens)
# TEST_NAME: High throughput functional screening FLIPR/FDSS6000 (intracellular Ca2+ evoked by MCH)
# Assay type: cell-based
# MEASUREMENT_CONDITIONS: FLIPR/FDSS, antagonist activity vs 50 nM MCH; class by percent of control at 10^−7 M or IC50; table after the classification; read-out: class
pIC50: −log10 of the molar value. Structures can show the parent of a compound that is named as a salt.
Below: a set of entries, each annotated with reported pIC50.

COMPOUND: CN(CC(=O)N[C@H]1CC[C@@H](Nc2ccc3ccccc3n2)CC1)c1ccccc1 [Example 3066, dihydrochloride]
pIC50: > 7.30
//
COMPOUND: CN(C)c1nc(N[C@H]2CC[C@@H](NC(=O)c3cccnc3Oc3ccccc3)CC2)nc2c1CCCC2 [Example 3107, hydrochloride]
pIC50: > 7.30
//
COMPOUND: Cc1cccc(C(=O)N[C@H]2CC[C@@H](Nc3cc(C)c4ccccc4n3)CC2)c1 [Example 3075, hydrochloride]
pIC50: > 7.30
//
COMPOUND: CCN(CC(=O)N[C@H]1CC[C@@H](Nc2nccc(N(C)C)n2)CC1)c1ccccc1 [Example 3202, dihydrochloride]
pIC50: > 7.30
//
COMPOUND: Cc1cc(C)nc(N[C@H]2CC[C@@H](NC(=O)c3cccnc3Oc3ccccc3)CC2)n1 [Example 3143, hydrochloride]
pIC50: < 6.70
//
COMPOUND: O=C(COc1ccc(F)c(Cl)c1)N[C@H]1CC[C@@H](Nc2ccc3ccccc3n2)CC1 [Example 3064, hydrochloride]
pIC50: > 7.30
//
COMPOUND: CN(CCO)c1ccnc(N[C@H]2CC[C@@H](NC(=O)c3ccc(F)c(F)c3)CC2)n1 [Example 3227, hydrochloride]
pIC50: < 6.70

----------
# reported IC50; entries follow
# MEASURED_TARGET: MCH receptor (Homo sapiens, UniProt Q99705)
# TEST_NAME: High throughput functional screening FLIPR/FDSS6000 (intracellular Ca2+ evoked by MCH)
# Assay type: cell-based
# MEASUREMENT_CONDITIONS: FLIPR/FDSS, antagonist activity vs 50 nM MCH; class by percent of control at 10^−7 M or IC50; table after the classification; read-out: class
Counter-ions that a name gives are not always drawn.

MOLECULE: Cc1cc(C)nc(N[C@H]2CC[C@@H](NC(=O)c3ccc(F)c(F)c3)CC2)n1 [Example 3142, hydrochloride]
IC50: > 200 nM
//
MOLECULE: O=C(N[C@H]1CC[C@@H](Nc2ccc3ccccc3n2)CC1)c1cccc(Br)c1 [Example 3047, hydrochloride]
IC50: < 50 nM
//
MOLECULE: CN(C)c1nc(N[C@H]2CC[C@@H](NC(=O)c3ccc(F)c(F)c3)CC2)ncc1Cl [Example 3139, hydrochloride]
IC50: 50 to 200 nM
//
MOLECULE: Cc1cnc(N[C@H]2CC[C@@H](NC(=O)c3cccnc3Oc3ccc(F)cc3)CC2)nc1N(C)C [Example 3123, hydrochloride]
IC50: < 50 nM
//
MOLECULE: O=C(N[C@H]1CC[C@@H](Nc2ccc3ccccc3n2)CC1)c1cccnc1Oc1ccc(F)c(Cl)c1 [Example 3060, hydrochloride]
IC50: 50 to 200 nM
//
MOLECULE: O=C(N[C@H]1CC[C@@H](Nc2ccc3ccccc3n2)CC1)c1ccc(F)c(Cl)c1 [Example 3038, hydrochloride]
IC50: < 50 nM
//
MOLECULE: Cc1cc(N[C@H]2CC[C@@H](CNC(=O)c3ccc(F)c(F)c3)CC2)nc2ccccc12 [Example 3104, hydrochloride]
IC50: 50 to 200 nM

----------
# MEASURED_TARGET: MCH receptor (Homo sapiens, UniProt Q99705)
# TEST_NAME: High throughput functional screening FLIPR/FDSS6000 (intracellular Ca2+ evoked by MCH)
# Assay type: cell-based
# MEASUREMENT_CONDITIONS: FLIPR/FDSS, antagonist activity vs 50 nM MCH; class by percent of control at 10^−7 M or IC50; table after the classification; read-out: class
Where a name gives a salt, the structure may show the parent alone.

COMPOUND: Cc1cccc(Oc2ncccc2C(=O)N[C@H]2CC[C@@H](Nc3ccc4ccccc4n3)CC2)c1 [Example 3061, hydrochloride]
IC50: < 50 nM

COMPOUND: O=C(N[C@H]1CC[C@@H](Nc2ccc3ccccc3n2)CC1)c1ccc(Br)o1 [Example 3053, hydrochloride]
IC50: < 50 nM

COMPOUND: CN(C)c1cc(Cl)nc(N[C@H]2CC[C@@H](NC(=O)c3cccnc3Oc3ccccc3)CC2)n1 [Example 3233, hydrochloride]
IC50: > 200 nM

COMPOUND: COc1ccnc(N[C@H]2CC[C@@H](NC(=O)c3cccnc3Oc3ccccc3)CC2)n1 [Example 3134, hydrochloride]
IC50: > 200 nM

COMPOUND: O=C(NC[C@H]1CC[C@@H](Nc2ccc3ccccc3n2)CC1)c1cccnc1Oc1ccccc1 [Example 3069, hydrochloride]
IC50: 50 to 200 nM

COMPOUND: CN(C)c1ccnc(N[C@H]2CC[C@@H](NC(=O)c3ccc(C(F)(F)F)nc3)CC2)n1 [Example 3212, hydrochloride]
IC50: > 200 nM

COMPOUND: O=C(N[C@H]1CC[C@@H](Nc2ccc3ccccc3n2)CC1)C1c2ccccc2Oc2ccccc21 [Example 3043, hydrochloride]
IC50: < 50 nM

COMPOUND: Cc1cc(N[C@H]2CC[C@@H](NC(=O)c3cccnc3Oc3ccc(F)c(Cl)c3)CC2)nc2ccccc12 [Example 3096, hydrochloride]
IC50: < 50 nM

COMPOUND: O=C(CNc1ccc(Cl)c(Cl)c1)N[C@H]1CC[C@@H](Nc2ccc3ccccc3n2)CC1 [Example 3067, dihydrochloride]
IC50: 50 to 200 nM

COMPOUND: Cc1cc(N(C)C)nc(N[C@H]2CC[C@@H](NC(=O)c3ccc(F)c(Cl)c3)CC2)n1 [Example 3230, hydrochloride]
IC50: < 50 nM

COMPOUND: CN(C)c1nc(N[C@H]2CC[C@@H](NCc3ccc(Br)cc3OC(F)(F)F)CC2)nc2c1CCCC2 [Example 13, dihydrochloride]
IC50: > 200 nM

COMPOUND: Cc1cc(N[C@H]2CC[C@@H](NC(=O)c3cccnc3Oc3ccc(F)cc3)CC2)nc2ccccc12 [Example 3090, hydrochloride]
IC50: < 50 nM

COMPOUND: Cc1cnc(N[C@H]2CC[C@@H](NC(=O)c3ccc(F)c(Cl)c3)CC2)nc1N(C)C [Example 3228, hydrochloride]
IC50: < 50 nM

COMPOUND: Cc1cc(N[C@H]2CC[C@@H](NC(=O)c3cccc(C#N)c3)CC2)nc2ccccc12 [Example 3087, hydrochloride]
IC50: < 50 nM

----------
# MEASURED_TARGET: MCH receptor (Homo sapiens, UniProt Q99705)
# TEST_NAME: High throughput functional screening FLIPR/FDSS6000 (intracellular Ca2+ evoked by MCH)
# Format: cell-based
# MEASUREMENT_CONDITIONS: FLIPR/FDSS, antagonist activity vs 50 nM MCH; class by percent of control at 10^−7 M or IC50; read-out: class
Below, each entry is listed with its recorded IC50.

COMPOUND: CCN(C(=O)N[C@H]1CC[C@@H](Nc2ncc(C)c(N(C)C)n2)CC1)c1cc(C(F)(F)F)cc(C(F)(F)F)c1
IC50: < 50 nM
//
COMPOUND: Cc1cnc(N[C@H]2CC[C@@H](C(=O)N[C@H](C)c3ccc(Br)cc3)CC2)nc1N(C)C
IC50: 50 to 200 nM
//
COMPOUND: Cc1cnc(N[C@H]2CC[C@@H](NCC(=O)c3ccc(Br)cc3)CC2)nc1N(C)C
IC50: > 200 nM
//
COMPOUND: Cc1cc(N(C)C)nc(N[C@H]2CC[C@@H](C(=O)NC(C)(C)c3cc(C(F)(F)F)cc(C(F)(F)F)c3)CC2)n1
IC50: > 200 nM
//
COMPOUND: CCN(C(=O)N[C@H]1CC[C@@H](Nc2ncc(C)c(N(C)C)n2)CC1)c1ccc(OC(F)(F)F)cc1
IC50: < 50 nM
//
COMPOUND: Cc1cnc(N[C@H]2CC[C@@H](NC(=O)NC3(c4ccc(Cl)cc4)CC3)CC2)nc1N(C)C
IC50: < 50 nM
//
COMPOUND: Cc1cc(N[C@H]2CC[C@@H](C(=O)N[C@@H](C)c3cccc(C(F)(F)F)c3)CC2)nc2ccccc12
IC50: < 50 nM
//
COMPOUND: Cc1cnc(N[C@H]2CC[C@@H](NC(=O)Nc3ccc(Br)cc3)CC2)nc1N(C)C
IC50: < 50 nM
//
COMPOUND: CNc1cc(C)nc(N[C@H]2CC[C@@H](NC(=O)COc3ccc(Cl)c(Cl)c3)CC2)n1
IC50: < 50 nM
//
COMPOUND: Cc1cnc(N[C@H]2CC[C@@H](NC(=O)[C@@H]3C[C@H]3c3ccc(Cl)cc3)CC2)nc1N(C)C (relative stereo)
IC50: < 50 nM
//
COMPOUND: Cc1cc(N(C)C)nc(N[C@H]2CC[C@@H](NC(=O)N(C)C3(c4ccc(Cl)cc4)CC3)CC2)n1
IC50: > 200 nM
//
COMPOUND: Cc1cc(N[C@H]2CC[C@@H](C(=O)N[C@@H](C)c3ccc(Cl)cc3)CC2)nc2ccccc12
IC50: 50 to 200 nM
//
COMPOUND: CCN(C(=O)N[C@H]1CC[C@@H](Nc2ncc(C)c(N(C)C)n2)CC1)c1cccc(C)c1
IC50: < 50 nM
//
COMPOUND: Cc1cnc(N[C@H]2CC[C@@H](NC(=O)Nc3ccc(F)cc3)CC2)nc1N(C)C
IC50: < 50 nM
//
COMPOUND: COc1nc(N[C@H]2CC[C@@H](NC(=O)c3cc(C(F)(F)F)cc(C(F)(F)F)c3)CC2)ncc1C
IC50: > 200 nM
//
COMPOUND: Cc1cc(N(C)C)nc(N[C@H]2CC[C@@H](NC(=O)c3cccnc3S(=O)(=O)c3cccc(Cl)c3)CC2)n1
IC50: 50 to 200 nM
//
COMPOUND: Cc1cnc(N[C@H]2CC[C@@H](C(=O)N[C@H](C)c3ccccc3F)CC2)nc1N(C)C
IC50: > 200 nM
//
COMPOUND: Cc1cnc(N[C@H]2CC[C@@H](NC(=O)[C@@H]3C[C@H]3c3ccc(F)c(F)c3)CC2)nc1N(C)C (relative stereo)
IC50: < 50 nM
//
COMPOUND: CCN(C(=O)N[C@H]1CC[C@@H](Nc2ncc(C)c(N(C)C)n2)CC1)c1ccccc1
IC50: < 50 nM
//
COMPOUND: Cc1cnc(N[C@H]2CC[C@@H](NC(=O)Nc3cc(Cl)ccc3Cl)CC2)nc1N(C)C
IC50: 50 to 200 nM
//
COMPOUND: Cc1cnc(N[C@H]2CC[C@@H](C(=O)N[C@@H](C)c3ccc(OC(F)(F)F)cc3)CC2)nc1N(C)C
IC50: < 50 nM
//
COMPOUND: Cc1cc(N[C@H]2CC[C@@H](C(=O)N[C@@H](C)c3ccc(Br)cc3)CC2)nc2ccccc12
IC50: > 200 nM
//
COMPOUND: Cc1cnc(N[C@H]2CC[C@@H](NC(=O)Nc3ccc(Cl)cc3)CC2)nc1N(C)C
IC50: 50 to 200 nM
//
COMPOUND: CCN(C(=O)N[C@H]1CC[C@@H](Nc2ncc(C)c(N(C)C)n2)CC1)c1ccc(Cl)cc1
IC50: < 50 nM
//
COMPOUND: Cc1cc(N(C)C)nc(N[C@H]2CC[C@@H](NC(=O)c3cccnc3S(=O)(=O)c3ccccc3C)CC2)n1
IC50: 50 to 200 nM
//
COMPOUND: Cc1cnc(N[C@H]2CC[C@@H](NC(=O)[C@@H]3C[C@H]3c3cccc(Cl)c3)CC2)nc1N(C)C (relative stereo)
IC50: < 50 nM
//
COMPOUND: Cc1cnc(N[C@H]2CC[C@@H](NC(=O)c3cccnc3S(=O)(=O)c3ccc(F)cc3)CC2)nc1N(C)C
IC50: < 50 nM
//
COMPOUND: Cc1cc(N[C@H]2CC[C@@H](C(=O)N[C@H](C)c3ccccc3C(F)(F)F)CC2)nc2ccccc12
IC50: 50 to 200 nM
//
COMPOUND: Cc1cnc(N[C@H]2CC[C@@H](NC(=O)N(C)c3ccccc3OC(F)(F)F)CC2)nc1N(C)C
IC50: < 50 nM
